- EXPERIMENTAL DETAILS: Single oral dose plasma pharmacokinetics in healthy subjects
- Assay type: in vivo, human
- MEASUREMENT CONDITIONS: human, 1000 ug; healthy subjects, single oral dose 1000 μg, fasted, plasma; mean
PROPERTY LABEL: AUC(0-inf) (ng·h/mL)
Just the number please, in ng·h/mL, no unit attached.

Entry under review: O=C(O)c1cc(F)c2nc(N3C4CC[C@H]3CC(OCc3c(-c5ccccc5OC(F)(F)F)noc3C3CC3)C4)sc2c1 (stereo partly shown) [Compound A] . Reported AUC(0-inf)? 482

----------
- EXPERIMENTAL DETAILS: Multiple oral dose plasma pharmacokinetics in healthy subjects
- Assay type: in vivo, human
- MEASUREMENT CONDITIONS: human, plasma, oral, 10 ug, healthy subjects, 10 μg qd, Day 13, plasma; median; read-out: Tmax
PROPERTY LABEL: Tmax (h)
Just the number please, in h, no unit attached.

Entry under review: O=C(O)c1cc(F)c2nc(N3C4CC[C@H]3CC(OCc3c(-c5ccccc5OC(F)(F)F)noc3C3CC3)C4)sc2c1 (stereo partly shown) . Reported Tmax? 4

----------
- EXPERIMENTAL DETAILS: Single oral dose plasma pharmacokinetics in healthy subjects
- Format: in vivo, human
- MEASUREMENT CONDITIONS: human, 10 ug; healthy subjects, single oral dose 10 μg, fasted, plasma; mean
PROPERTY LABEL: AUC(0-t) (ng·h/mL)
Just the number please, in ng·h/mL, no unit attached.

Entry under review: O=C(O)c1cc(F)c2nc(N3C4CC[C@H]3CC(OCc3c(-c5ccccc5OC(F)(F)F)noc3C3CC3)C4)sc2c1 (stereo partly shown) [Compound A] . Reported AUC(0-t)? 2.79

----------
- EXPERIMENTAL DETAILS: Single oral dose plasma pharmacokinetics in healthy subjects
- Type: in vivo, human
- MEASUREMENT CONDITIONS: human, 300 ug; healthy subjects, single oral dose 300 μg, fasted, plasma; mean; read-out: T1/2 (converted)
PROPERTY LABEL: half-life
# answer = value followed by unit

Entry under review: O=C(O)c1cc(F)c2nc(N3C4CC[C@H]3CC(OCc3c(-c5ccccc5OC(F)(F)F)noc3C3CC3)C4)sc2c1 (stereo partly shown) . Reported half-life? 15.3 h

----------
- EXPERIMENTAL DETAILS: Single oral dose plasma pharmacokinetics in healthy subjects
- Format: in vivo, human
- MEASUREMENT CONDITIONS: human, 3000 ug; healthy subjects, single oral dose 3000 μg, fasted, plasma; mean; read-out: T1/2 (converted)
PROPERTY LABEL: half-life
# answer = value followed by unit

Entry under review: O=C(O)c1cc(F)c2nc(N3C4CC[C@H]3CC(OCc3c(-c5ccccc5OC(F)(F)F)noc3C3CC3)C4)sc2c1 (stereo partly shown) . Reported half-life? 16.5 h

----------
- EXPERIMENTAL DETAILS: Pharmacokinetics in the chronic 2 week rat ANIT-induced cholestasis model
- Type: in vivo
- MEASUREMENT CONDITIONS: male, Wistar, po, 0.01 mg/kg, day 13, serum, read-out: AUC 0-24 hr
PROPERTY LABEL: AUC(0-t) (ng·h/mL)
Just the number please, in ng·h/mL, no unit attached.

Entry under review: O=C(O)c1cc(F)c2nc(N3C4CC[C@H]3CC(OCc3c(-c5ccccc5OC(F)(F)F)noc3C3CC3)C4)sc2c1 (stereo partly shown) [Compound A] . Reported AUC(0-t)? 3.49
